tested_system: Pol theta (1-899) (Homo sapiens, UniProt O75417)
Construct: Pol theta (1-899) (5 nM) in assay buffer
Sequence (O75417 1-899): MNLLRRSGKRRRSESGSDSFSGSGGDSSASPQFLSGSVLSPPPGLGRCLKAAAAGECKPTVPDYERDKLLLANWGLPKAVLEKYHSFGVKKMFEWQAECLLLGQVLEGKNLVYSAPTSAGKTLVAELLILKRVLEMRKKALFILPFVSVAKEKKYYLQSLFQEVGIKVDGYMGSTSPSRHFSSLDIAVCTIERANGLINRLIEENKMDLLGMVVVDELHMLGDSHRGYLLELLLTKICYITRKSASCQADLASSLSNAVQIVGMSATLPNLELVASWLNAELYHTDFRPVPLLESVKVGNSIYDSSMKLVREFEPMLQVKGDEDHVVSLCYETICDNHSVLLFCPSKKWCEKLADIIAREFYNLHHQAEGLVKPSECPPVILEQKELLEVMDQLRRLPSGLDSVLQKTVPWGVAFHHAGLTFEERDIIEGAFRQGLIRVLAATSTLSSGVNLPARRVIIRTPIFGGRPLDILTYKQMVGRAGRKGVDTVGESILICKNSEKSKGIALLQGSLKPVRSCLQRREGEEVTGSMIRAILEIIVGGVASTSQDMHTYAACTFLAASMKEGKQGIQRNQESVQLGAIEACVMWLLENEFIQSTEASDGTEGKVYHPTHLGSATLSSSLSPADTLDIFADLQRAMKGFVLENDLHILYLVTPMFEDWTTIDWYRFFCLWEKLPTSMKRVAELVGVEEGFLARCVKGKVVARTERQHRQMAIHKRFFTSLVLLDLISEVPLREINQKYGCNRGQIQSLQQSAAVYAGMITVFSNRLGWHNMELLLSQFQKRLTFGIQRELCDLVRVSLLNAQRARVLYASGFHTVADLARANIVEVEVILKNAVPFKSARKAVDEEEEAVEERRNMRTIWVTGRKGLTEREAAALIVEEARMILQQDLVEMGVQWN
assay_name: Pol theta ATPase activity, NADH oxidation-coupled enzymatic assay (ATPase NADH coupling: Standard Screening: hPolQ)
Format: biochemical
condition_notes: Table 4; Pol theta (1-899) 5 nM, ATP, dT50 ssDNA
assay_readout: IC50

{"compound": "COc1cnc(Cl)cc1-c1cc(C)ncc1C(=O)Nc1nnc(O[C@H]2CCO[C@@H]2C)s1 (single isomer, unassigned)", "test_value": "≤ 200 nM"}
{"compound": "COc1cnc(Cl)cc1-c1cc(C)ncc1C(=O)Nc1nnc(OC2(C)COC2)s1", "test_value": "≤ 200 nM"}
{"compound": "COc1cccc(F)c1-c1cc(C)ncc1C(=O)Nc1nnc(O)s1", "test_value": "1000 to 10000 nM"}
{"compound": "COc1nnc(NC(=O)c2cnc(C)cc2-c2cc(C(F)F)ncc2OC)s1", "test_value": "≤ 200 nM"}
{"compound": "COc1nnc(NC(=O)c2cnc(CO)cc2-c2cc(Cl)ncc2OC)s1", "test_value": "≤ 200 nM"}
{"compound": "COc1nnc(NC(=O)c2cnc(C)cc2-c2ccnc(Cl)c2)s1", "test_value": "≤ 200 nM"}
{"compound": "COc1cnc(Cl)cc1-c1cc(C)ncc1C(=O)Nc1nnc(O[C@H]2CCO[C@H]2C)s1 (single isomer, unassigned)", "test_value": "≤ 200 nM"}
{"compound": "COc1nnc(NC(=O)c2cnc(C)cc2-c2cc(Cl)ncc2CO)s1", "test_value": "500 to 1000 nM"}
{"compound": "COc1cnc(Cl)cc1-c1cc(C)ncc1C(=O)Nc1nnc(O[C@H]2CC[C@@H](O)C2)s1 (single isomer, unassigned) [Example 58]", "test_value": "≤ 200 nM"}
{"compound": "COc1cnc(Cl)cc1-c1cc(C)ncc1C(=O)Nc1nnc(OC2CCS(=O)(=O)CC2)s1", "test_value": "≤ 200 nM"}

====

tested_system: Pol theta (1-899) (Homo sapiens, UniProt O75417)
Construct: Pol theta (1-899) (5 nM) in assay buffer
assay_name: Pol theta ATPase activity, NADH oxidation-coupled enzymatic assay (ATPase NADH coupling: Standard Screening: hPolQ)
Assay type: biochemical
condition_notes: Pol theta (1-899) 5 nM, NADH oxidation-coupled ATPase assay; compounds of Table 3

{"molecule": "COc1cnc(Br)cc1-c1cc(C)ncc1C(=O)Nc1nnc(O[C@H]2CCC[C@H](O)C2)s1", "IC50": "≤ 0.2 µM"}
{"molecule": "COc1nnc(NC(=O)c2cnc(C)cc2-c2cnccc2C(F)(F)F)s1", "IC50": "1 to 10 µM"}
{"molecule": "COc1cnc(C)cc1-c1cc(C)ncc1C(=O)Nc1nnc(OC2CC=CC2)s1", "IC50": "≤ 0.2 µM"}
{"molecule": "COc1nnc(NC(=O)c2cnc(C)cc2-c2cn[nH]c2)s1", "IC50": "1 to 10 µM"}
{"molecule": "COCCOc1cccc(-c2cc(C)ncc2C(=O)Nc2nnc(OC)s2)c1", "IC50": "1 to 10 µM"}
{"molecule": "CNC(=O)c1cncc(-c2cc(C)ncc2C(=O)Nc2nnc(OC)s2)c1", "IC50": "1 to 10 µM"}
{"molecule": "COc1cnc(Cl)cc1-c1cc(C)ncc1C(=O)Nc1nnc(O[C@@H]2C[C@@H]3C[C@H]2C[C@H]3O)s1 (single isomer, unassigned)", "IC50": "≤ 0.2 µM"}
{"molecule": "COc1nnc(NC(=O)c2ccncc2-c2cc(Cl)ncc2OC)s1", "IC50": "≤ 0.2 µM"}
{"molecule": "COc1nnc(NC(=O)c2cnc(C)cc2-c2cnc(C#N)cc2C)s1", "IC50": "1 to 10 µM"}
{"molecule": "COc1nnc(NC(=O)c2cnc(C)cc2-c2ccc3c(c2)NC(=O)CO3)s1", "IC50": "1 to 10 µM"}
{"molecule": "COc1nnc(NC(=O)c2cnc(C)cc2-c2cc(F)cc(C#N)c2)s1", "IC50": "0.5 to 1 µM"}
{"molecule": "COc1nnc(NC(=O)c2cnc(C)cc2-c2coc3ccccc23)s1", "IC50": "1 to 10 µM"}
{"molecule": "COc1nnc(NC(=O)c2cnc(C)cc2-c2cncc(F)c2)s1", "IC50": "1 to 10 µM"}
{"molecule": "COc1nnc(NC(=O)c2cnc(C)cc2-c2ccc3c(c2)OCCN3C)s1", "IC50": "1 to 10 µM"}
{"molecule": "COc1nnc(NC(=O)c2cnc(C)cc2-c2ccc3[nH]ncc3c2)s1", "IC50": "0.5 to 1 µM"}
{"molecule": "COc1nnc(NC(=O)c2cnc(C)cc2-c2ccc3c(c2)CCO3)s1", "IC50": "1 to 10 µM"}
{"molecule": "COc1nnc(NC(=O)c2cnc(C)cc2-c2cc(Cl)c([S@@+]([O-])C3CC3)cc2OC)s1 (single isomer, unassigned)", "IC50": "≤ 0.2 µM"}
